All figures here come from patent US5225436A.

# TEST_TARGET: 5-lipoxygenase (Homo sapiens)
# Construct: Human polymorphonuclear leukocytes (neutrophils) were obtained from normal healthy volunteers; endogenous in cells; host or cells: human blood neutrophils from healthy volunteers
# Sequence (P09917 whole entry): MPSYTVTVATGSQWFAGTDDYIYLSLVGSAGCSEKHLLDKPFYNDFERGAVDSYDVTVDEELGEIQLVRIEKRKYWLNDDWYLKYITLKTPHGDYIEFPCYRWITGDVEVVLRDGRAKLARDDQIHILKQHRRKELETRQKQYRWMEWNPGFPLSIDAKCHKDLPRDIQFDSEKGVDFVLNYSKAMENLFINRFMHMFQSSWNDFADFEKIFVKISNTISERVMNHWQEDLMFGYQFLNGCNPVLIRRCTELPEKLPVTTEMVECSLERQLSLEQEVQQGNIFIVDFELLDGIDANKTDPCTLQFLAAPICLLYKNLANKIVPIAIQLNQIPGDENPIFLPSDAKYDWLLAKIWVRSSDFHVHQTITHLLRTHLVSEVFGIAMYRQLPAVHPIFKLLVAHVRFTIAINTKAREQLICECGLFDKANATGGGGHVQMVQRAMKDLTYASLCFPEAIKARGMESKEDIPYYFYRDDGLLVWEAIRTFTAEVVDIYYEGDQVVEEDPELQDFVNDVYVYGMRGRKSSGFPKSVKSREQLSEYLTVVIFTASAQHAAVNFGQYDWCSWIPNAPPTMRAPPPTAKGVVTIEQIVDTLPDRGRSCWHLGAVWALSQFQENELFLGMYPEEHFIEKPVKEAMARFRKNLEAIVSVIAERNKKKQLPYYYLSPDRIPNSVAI
# PROTOCOL_NOTES: 5-Lipoxygenase assay with human neutrophils
# Type: cell-based
# REPORTED_CONDITIONS: 5 min; Human PMN, dose 15 μm (μM); read-out: % Inhibition 5-HETE
REPORTED_ENDPOINT: inhibition at 15 µM (%)

CC1(C)C(c2cc(O)cc(O)c2)=CC(=O)c2c(O)cc(O)cc21
11
CCOC(=O)C1C(=O)c2c(OC)cc(OC)cc2C(C)(C)C1c1ccc(OC)c(OC)c1 (centres unmarked)
69
COc1cc(OC)c2c(c1)C(C)(C)C(c1ccc(OC)c(OC)c1)=CC2=NO
0
COc1cc(OC)c2c(c1)C(C)(C)C(c1ccc(OC)c(OC)c1)CC2NC(C)=O (centres unmarked)
0
COc1cc(O)c2c(c1)C(C)(C)C(c1cc(O)cc(O)c1)CC2=O (centres unmarked)
75
